We begin with a simple list: items and their reported melting point.
value type: melting point

• C#Cc1cc2ncc(C#N)c(Nc3cc(OC)c(Cl)cc3Cl)c2s1 = 198 to 200 °C
• COc1cc(Nc2c(C#N)cnc3cc(-c4csc(C=O)c4)sc23)c(Cl)cc1Cl = 259 to 261 °C
• N#Cc1cnc2ccsc2c1NCc1ccc(Cl)cc1Cl = 215 to 216 °C
• Cn1ccnc1Sc1ccc(Nc2c(C#N)cnc3sccc23)cc1Cl = > 240 °C
• N#Cc1cnc2cc(/C=C/c3ccncc3)sc2c1Nc1ccc(Oc2ccccc2)cc1 = 240 to 241 °C
• COc1cc(Nc2c(C#N)cnc3c(-c4ccc(CN(C)C)cc4)csc23)c(Cl)cc1Cl = 201 to 202 °C
• COc1cc(Nc2c(C#N)cnc3sc(-c4ccc(CN5CCOCC5)cc4)cc23)c(Cl)cc1Cl = 106 to 108 °C
• COc1cc(Nc2c(C#N)cnc3cc(-c4ccc(CCN(C)C)cc4)sc23)c(Cl)cc1Cl = 196 to 197 °C
• N#Cc1cnc2cc(-c3ccc(CN4CCOCC4)cc3)sc2c1Nc1ccc(Oc2ccccc2)cc1 = 254 to 256 °C
• COc1cc(Nc2c(C#N)cnc3cc(-c4ccc(CN5CCOCC5)cc4)sc23)c(Cl)cc1Cl = 244 to 245 °C
• COc1cc(Nc2c(C#N)cnc3cc(I)sc23)cc(OC)c1OC = 254 to 256 °C
• COc1cc(Nc2c(C#N)cnc3cc(C#CCN4CCN(C)CC4)sc23)cc(OC)c1OC = 180 to 182 °C
• COc1cc(Nc2c(C#N)cnc3cc(-c4ccc(C=O)cc4)sc23)cc(OC)c1OC = 268 to 270 °C
• Cn1ccnc1Sc1ccc(Nc2c(C#N)cnc3cc(-c4ccc(C=O)cc4)sc23)cc1Cl = 279 to 281 °C
• COc1cc(Nc2c(C#N)cnc3cc(-c4ccc(CN5CCCCC5)cc4)sc23)c(Cl)cc1Cl = 218 to 220 °C
• COc1cc(Nc2c(C#N)cnc3cc(-c4ccc(CNCCSC)cc4)sc23)c(Cl)cc1Cl = 154 to 156 °C
• COc1cc(Nc2c(C#N)cnc3sc(C#Cc4cccnc4)cc23)c(Cl)cc1Cl = 191 °C (dec.)
• COc1cc(Nc2c(C#N)cnc3sc(C#CCN4CCN(C)CC4)cc23)c(Cl)cc1Cl = 175 °C (dec.)
• COc1cc(Nc2c(C#N)cnc3cc(-c4ccc(C=O)cc4)sc23)c(Cl)cc1Cl = 261 to 262 °C
• COc1cc(Nc2c(C#N)cnc3sc(CCCCO)cc23)cc(OC)c1OC = 125 to 127 °C
• COc1cc(Nc2c(C#N)cnc3cc(-c4coc(CN5CCN(C)CC5)c4)sc23)c(Cl)cc1Cl = 189 to 192 °C
• COc1cc(Nc2c(C#N)cnc3cc(-c4ccc(N5CCOCC5)nc4)sc23)c(Cl)cc1Cl = 225 to 227 °C
• CCN(CC)Cc1ccc(-c2cc3ncc(C#N)c(Nc4cc(OC)c(Cl)cc4Cl)c3s2)nc1 = 192 to 193 °C
• COc1cc(Nc2c(C#N)cnc3cc(-c4ccc(CN5CCNCC5)cc4)sc23)c(Cl)cc1Cl = 218 to 220 °C
• COc1cc(Nc2c(C#N)cnc3cc(/C=C/n4nccn4)sc23)c(Cl)cc1Cl = 315 to 316 °C
• N#Cc1cnc2ccsc2c1Sc1ccc(Cl)cc1Cl = 126 to 128 °C
